# System: HCC78 cells having ROS1 fusion gene
# method: HCC78 cell growth assay (CellTiter-Glo)
# Format: cell-based
# assay-context: Homo sapiens, HCC78, 72 h, 72 hours culture, 2% FBS medium, luminescence, four separate measurements; read-out: growth inhibitory effect on HCC78 cells having ROS1 fusion gene IC50

- compound: "CC1(N)CN(c2ccc(-c3cnc4ccc(OCc5cccc(F)c5)nn34)cc2)C(=O)C12CC2 (stereo not shown) [Example 77]"
  tgt: "HCC78 cells having ROS1 fusion gene"
  IC50: "0.02 to 0.1 µM"
- compound: "C[C@@H](Nc1ccc2ncc(-c3ccc(OC[C@@H](N)[C@@H](C)O)cc3)n2n1)c1cccc(F)c1 [Example 54]"
  tgt: "HCC78 cells having ROS1 fusion gene"
  IC50: "< 0.02 µM"
- compound: "CC[C@@H](N)COc1ccc(-c2cnc3ccc(N[C@H](C)c4cccc(F)c4)nn23)cc1 [Example 52]"
  tgt: "HCC78 cells having ROS1 fusion gene"
  IC50: "0.02 to 0.1 µM"
- compound: "CN(Cc1cccc(F)c1F)c1ccc2ncc(-c3ccc(N4C[C@@H](N)CC4=O)nc3)n2n1 [Example 132]"
  tgt: "HCC78 cells having ROS1 fusion gene"
  IC50: "0.02 to 0.1 µM"
- compound: "C[C@@H](Nc1ccc2ncc(-c3ccc(OCCN)cc3)n2n1)c1cccc(F)c1 [Example 26]"
  tgt: "HCC78 cells having ROS1 fusion gene"
  IC50: "< 0.02 µM"
- compound: "C[C@@H](Nc1ccc2ncc(-c3ccc(OC[C@@H]4CCN4)cc3)n2n1)c1cccc(F)c1 [Example 30]"
  tgt: "HCC78 cells having ROS1 fusion gene"
  IC50: "< 0.02 µM"
- compound: "C[C@@H](Nc1ccc2ncc(-c3cccc(OCCCN)c3)n2n1)c1cccc(F)c1 [Example 68]"
  tgt: "HCC78 cells having ROS1 fusion gene"
  IC50: "0.02 to 0.1 µM"
- compound: "C[C@@H](Nc1ccc2ncc(-c3ccc(OC[C@@H]4CCN4)cc3F)n2n1)c1cccc(F)c1 [Example 43]"
  tgt: "HCC78 cells having ROS1 fusion gene"
  IC50: "< 0.02 µM"
- compound: "C[C@@H](Nc1ccc2ncc(-c3ccc(OC[C@@H]4CCNC4)cc3)n2n1)c1cccc(F)c1 [Example 23]"
  tgt: "HCC78 cells having ROS1 fusion gene"
  IC50: "0.1 to 0.6 µM"
- compound: "C[C@@H](Nc1ccc2ncc(-c3cccc(N4C[C@@H](N)CC4=O)c3)n2n1)c1cccc(F)c1 [Example 91]"
  tgt: "HCC78 cells having ROS1 fusion gene"
  IC50: "0.02 to 0.1 µM"
- compound: "NC1CC(=O)N(c2ccc(-c3cnc4ccc(OCc5cccc(F)c5)nn34)cc2)C1 (stereo not shown) [Example 73]"
  tgt: "HCC78 cells having ROS1 fusion gene"
  IC50: "0.02 to 0.1 µM"
- compound: "CC(Oc1ccc2ncc(-c3ccc(N4C[C@@H](N)CC4=O)cc3)n2n1)c1cccc(F)c1F (stereo partly shown) [Example 102]"
  tgt: "HCC78 cells having ROS1 fusion gene"
  IC50: "0.1 to 0.6 µM"
- compound: "CCN(Cc1ccccc1)c1ccc2ncc(-c3ccc(N4C[C@@H](N)CC4=O)cc3)n2n1 [Example 95]"
  tgt: "HCC78 cells having ROS1 fusion gene"
  IC50: "0.1 to 0.6 µM"
